# Test system: LXFL 529
# assay: NCI tumour cell line growth inhibition, 48 h
Active and inactive are the calls of the source. Rule as the data show it: active = GI50 up to about 1.1 µM and inactive = higher.
Outcome field: choose from yes for active, no for inactive

Worked examples, 2 compounds total:
                                   compound  assay_system  qualitative_label
0  O=C(CCC(=O)Nc1ccc(Cl)c(Cl)c1)CC(=O)c1ccc(Cl)cc1      LXFL 529                 no
1          O=C1C[C@H]2CC3(CC[C@H]2CN1)OCCO3      LXFL 529                 no

IN: Tell me the assay call for O=C(CC(=O)n1nc(-c2ccccc2)c(/N=N/c2ccccc2Cl)c1-c1ccccc1)Nc1ccc(Cl)cc1 please.
OUT: no

IN: What did the test return for CCCCCCCCCCCCCCCCOCC(CN(C)CCN(C)C)OCCCCCCCCCCCCCCCC (stereo not drawn) ?
OUT: no

IN: Hi team, can someone confirm the assay call for C=C1C(=O)OC2/C=C(\C)C3OC3/C=C(/C(=O)OC)C(OC(C)=O)C(OC(=O)C(C)(O)C(C)OC(C)=O)C12 (stereo not drawn) ?
OUT: yes

IN: For C/C(CN1C(=O)c2ccccc2C1=O)=N\NS(=O)(=O)c1ccc(Br)cc1 , which call appears in the assay record?
OUT: no

IN: Which result was noted for this compound in the test: CCP(C)(=O)CC
OUT: no

IN: For this compound, state the assay outcome: CC(=O)N(CCN)CCN
OUT: no

---

# System: SF-539
# assay: NCI tumour cell line growth inhibition, 48 h
The source made the active and inactive calls. No stated cut-off is given here; in the data, active = GI50 up to about 1.1 µM and inactive = higher.
Documented GI50 across a set of compounds

Solved entries:
In [3]: df
Out[3]:
                                   compound         result_value
0  O=C(/C=C/c1ccccc1)C[C@@H](O)C[C@@H]1CC=CC(=O)O1   3.57 µM (inactive)
1  CC(=O)CC(C)(C)NC(=O)[C@@]1(O)CC[C@H]2[C@@H]3CCC4=CC(=O)CC[C@@H]4[C@H]3CC[C@@]21C  > 100 µM (inactive)
2  O=C1N2CCc3c([nH]c4ccccc34)C23CC2CCCC12S3 (centres undefined)   > 50 µM (inactive)

Lookup result for CC(=O)Nc1ccc(/C=C/c2ccc(NC(=O)Nc3ccc(/C=C/c4ccc(NC(C)=O)cc4S(=O)(=O)O)c(S(=O)(=O)O)c3)cc2S(=O)(=O)O)c(S(=O)(=O)O)c1 ; measured GI50: > 100 µM (inactive)

---

# System: SK-OV-3
# assay: NCI tumour cell line growth inhibition, 48 h
Activity calls are given as the source filed them. Rule as the data show it: active = GI50 up to about 1.1 µM and inactive = higher.
GI50 by entry:

Solved entries:
In [3]: df
Out[3]:
                                   molecule         result_value
0  CC1=C(C(=O)NNC(=O)C[N+](C)(C)C)CC(C(=O)NNC(=O)C[N+](C)(C)C)=C(C)N1  > 100 µM (inactive)
1  CCOC(C)O[C@H]1C(=O)OCC1(C)C (stereo not given in full)  > 100 µM (inactive)
2  CC(=O)OC1CC2(O)C(CCC3(C)C(c4ccc(=O)oc4)CCC32O)C2(C)CCC(O)C=C12 (stereo not given)   0.0336 µM (active)
3          CC(C)=C1C(=O)c2c(Cl)sc(Cl)c2C1=O  > 100 µM (inactive)

Lab note: Cc1nc2c(=O)[nH]c(=O)n(C)c2[nH]c1=O.c1ccncc1 gave GI50 of > 100 µM (inactive)
